# T/C listing for each entry below
- System: P388 leukemia ip, CD2F1 mice, survival T/C
- PROTOCOL_DESCRIPTION: NCI In Vivo Anticancer Drug Screen. Data for tumor model P388 Leukemia (intraperitoneal) in CD2F1 (CDF1) mice
- CONDITIONS: endpoint: median survival time; dose: 60.0 mg/kg/injection; schedule: Q01DX005 (ip); vehicle: Klucel (hydroxypropylcellulose) (HPC); higher = longer survival
Toxic doses and inconclusive results are not listed.

- COMPOUND: "CCCCN1C(=O)[C@@H]2[C@H](c3ccccc3O)C(c3ccccc3O)[C@@H]2C1=O (stereo partly specified)"
  T/C: "100 % of control"
- COMPOUND: "O=C(O)CSc1ccc([N+](=O)[O-])cc1[N+](=O)[O-]"
  T/C: "107 % of control"
- COMPOUND: "O=C(O)C12C=CC(CC1)CC2"
  T/C: "99 % of control"
- COMPOUND: "Cc1nc(N)[nH]c(=O)c1CCCC#N"
  T/C: "105 % of control"
- COMPOUND: "Oc1cccc(N2CCN(c3cccc(O)c3)CC2)c1"
  T/C: "91 % of control"
- COMPOUND: "C1COCCOCCOCCOCCO1.[Cl][Sn]([Cl])([Cl])[Cl]"
  T/C: "100 % of control"

---

- System: P388 leukemia ip, CD2F1 mice, survival T/C
- PROTOCOL_DESCRIPTION: NCI In Vivo Anticancer Drug Screen. Data for tumor model P388 Leukemia (intraperitoneal) in CD2F1 (CDF1) mice
- CONDITIONS: endpoint: median survival time; dose: 12.5 mg/kg/injection; schedule: Q01DX005 (ip); vehicle: saline with Tween-80; higher = longer survival
Inconclusive results and toxic doses are left out.

- INPUT_SMILES: "C[C@@H]1C[C@@H]2c3cccc4[nH]cc(c34)C[C@H]2N(C)C1"
  T/C: "100 % of control"
- INPUT_SMILES: "C#CCOC(=O)c1ccccc1"
  T/C: "104 % of control"
- INPUT_SMILES: "COc1cccc(/C=C2/SC(=S)N(Cc3ccco3)C2=O)c1OC"
  T/C: "100 % of control"
- INPUT_SMILES: "O=C1CN(c2cccc(C(F)(F)F)c2)C(=O)CN1/N=C/c1ccc(O)c(O)c1"
  T/C: "97 % of control"

---

- Tested on: P388 leukemia ip, CD2F1 mice, survival T/C
- PROTOCOL_DESCRIPTION: NCI In Vivo Anticancer Drug Screen. Data for tumor model P388 Leukemia (intraperitoneal) in CD2F1 (CDF1) mice
- CONDITIONS: endpoint: median survival time; dose: 200.0 mg/kg/injection; schedule: Q01DX009 (ip); vehicle: saline with Tween-80; higher = longer survival
Toxic doses and inconclusive results are not listed.
QUANTITY: T/C

- MOLECULE: "CS(=O)(=O)c1cc(=O)[nH]c(=O)[nH]1"
  RESULT: "95 % of control"
- MOLECULE: "CCN(CC)c1cc(-c2ccccc2)oc(=O)c1Cl"
  RESULT: "97 % of control"
- MOLECULE: "CCOC(=O)NC(=S)Nc1cccs1"
  RESULT: "101 % of control"
- MOLECULE: "CN(C)CCC(=O)c1ccc([N+](=O)[O-])cc1"
  RESULT: "106 % of control"
- MOLECULE: "O=CNNC(=S)Nc1ccccc1"
  RESULT: "108 % of control"
- MOLECULE: "CC1(C)CN(C(C)(C)C)CN2C1OCC2(C)C (configuration not stated)"
  RESULT: "112 % of control"
- MOLECULE: "Cc1ccc(S(=O)(=O)OCCC(C)(C)C)cc1"
  RESULT: "111 % of control"
- MOLECULE: "CC(C)=C(OS(=O)(=O)C(F)(F)F)[Si](C)(C)C"
  RESULT: "105 % of control"
- MOLECULE: "O=C(O)CCCOC(C[N+](=O)[O-])C(Cl)(Cl)Cl (configuration not stated)"
  RESULT: "96 % of control"
- MOLECULE: "CC(=O)C(C#N)c1ccccn1 (configuration not stated)"
  RESULT: "100 % of control"
- MOLECULE: "COc1cc(C(=O)n2ncc(C(C)=O)c2C)cc(OC)c1OC"
  RESULT: "116 % of control"
- MOLECULE: "O=C(Nc1ccc(C(=O)Nc2cc(S(=O)(=O)O)cc3cc(S(=O)(=O)O)cc(O)c23)cc1)c1ccccc1"
  RESULT: "106 % of control"
- MOLECULE: "COC(=N)c1nc2c(N)nc(-c3ccccc3)nc2[nH]c1=O"
  RESULT: "98 % of control"
- MOLECULE: "N#C/C=C1\\NC(=O)CS1"
  RESULT: "95 % of control"
- MOLECULE: "O=C1OC(=O)C2CCC12 (configuration not stated)"
  RESULT: "97 % of control"
- MOLECULE: "CCOC(=O)C(C)(C)Oc1ccc(Cl)cc1"
  RESULT: "112 % of control"
- MOLECULE: "CCCCCCCCCCCCOc1ccccc1"
  RESULT: "100 % of control"
- MOLECULE: "CCC(C)(C)C(=O)O"
  RESULT: "100 % of control"
- MOLECULE: "COc1cc2c(cc1OC)-c1[nH]ncc1CC2"
  RESULT: "106 % of control"
- MOLECULE: "c1ccc2[nH]c(N=Nc3cccc4ccccc34)cc2c1"
  RESULT: "115 % of control"
- MOLECULE: "OC1(c2cccnc2)C=CCC1 (configuration not stated)"
  RESULT: "100 % of control"
- MOLECULE: "CC(C)=CCC/C(C)=C\\CCl"
  RESULT: "90 % of control"
- MOLECULE: "CCCCCCCCCCCCCOC(=O)c1ccc(O)cc1"
  RESULT: "88 % of control"
- MOLECULE: "Oc1c(-c2ccccc2)cc(-c2ccc(Br)cc2)c(-c2ccc(Br)cc2)c1-c1ccccc1"
  RESULT: "96 % of control"
- MOLECULE: "COc1nc(Cl)nc(OC)n1"
  RESULT: "86 % of control"
- MOLECULE: "C[Si](Cl)(CCl)CCl"
  RESULT: "118 % of control"
- MOLECULE: "O=C(Nc1ccc(NC(=O)C(Cl)(Cl)Cl)cc1)C(Cl)(Cl)Cl"
  RESULT: "99 % of control"
- MOLECULE: "CCOC(=O)C(=O)C1CC(c2ccccc2)=NNC1=O (configuration not stated)"
  RESULT: "96 % of control"
- MOLECULE: "CCOc1cc2c(Cl)ncnc2c(OCC)c1OCC"
  RESULT: "106 % of control"
- MOLECULE: "CCOC1OCN(Cc2ccccc2)CC1(C)C (configuration not stated)"
  RESULT: "117 % of control"
- MOLECULE: "CCOC(=O)c1nc(Cl)cn(O)c1=N"
  RESULT: "99 % of control"
- MOLECULE: "CN(C)C1C=C(c2ccccc2)OS(=O)(=O)C1 (configuration not stated)"
  RESULT: "113 % of control"
- MOLECULE: "CCCOC(=O)C(F)C(Br)C(=O)OCCC (configuration not stated)"
  RESULT: "123 % of control"
- MOLECULE: "CC(C)(C)c1cc(C(c2ccccc2)(c2ccccc2)c2ccccc2)cc2c1OP(F)(c1ccccc1)(c1ccccc1)N2"
  RESULT: "91 % of control"
- MOLECULE: "CCN(CC)CCCC(C)Nc1cc(OC)c2nc(C)cc(Cl)c2c1OC (configuration not stated)"
  RESULT: "95 % of control"
- MOLECULE: "CC1=CC(C)(C)Nc2ccc(CSc3ccccc3)cc21"
  RESULT: "96 % of control"
- MOLECULE: "O=C(c1ccccc1)c1ccc(NC(=O)C(F)(F)F)cc1"
  RESULT: "99 % of control"
- MOLECULE: "COP(=O)(OC)/C(=N\\NS(=O)(=O)c1ccc(C)cc1)c1ccccc1"
  RESULT: "117 % of control"
- MOLECULE: "Cc1cc(N)ccc1Cl"
  RESULT: "96 % of control"
- MOLECULE: "CC(O)CC1(c2ccccc2)C(=O)NC(=O)NC1=O (configuration not stated)"
  RESULT: "95 % of control"
- MOLECULE: "CCOC(=O)C(C#N)C1(c2ccccc2)CCCCC1 (configuration not stated)"
  RESULT: "101 % of control"
- MOLECULE: "O=C(CC1C2CC3CC(C2)CC1C3)C1C2CC3CC(C2)CC1C3 (configuration not stated)"
  RESULT: "97 % of control"

Data provenance: PubChem BioAssay AID330
